Overview of reported viscosity across a group of compounds:
conditions: 318.15 K; 101 kPa
± gives the uncertainty stated by the source.

Consider the reported viscosity for these compounds:
* O=C1CCCCO1 | 2.119 ± 0.15 mPa·s
* Ic1ccccc1 | 1.162 ± 0.031 mPa·s
* FC(F)C(F)(F)OCC(F)(F)C(F)(F)C(F)(F)C(F)F | 1.65 ± 0.07 mPa·s

In the following, a different compound is considered.
Input line: Respond only with viscosity recorded for OCC(F)(F)F
Output line: 1.13 ± 0.02 mPa·s

====

conditions: 313.15 K; 101 kPa
Overview of reported log10(viscosity) across a group of compounds:
Log10 applied to viscosity; unit prior to transform: mPa·s.

Consider the reported log10(viscosity) for these compounds:
* CCCCn1cc[n+](C)c1.O=S(=O)([N-]S(=O)(=O)C(F)(F)F)C(F)(F)F | 1.45
* CC(F)(F)Cl | -0.70
* O=C1CCCCO1 | 0.36
* Nc1cccc(Cl)c1Cl | 0.57

Input line: Respond only with log10(viscosity) recorded for CC(=O)[O-].CCCC[n+]1ccn(C)c1
Output line: 2.19

====

settings: 298.15 K; 101 kPa
reportedProperty: viscosity (mPa·s)
Answer with a number only, understood to be in mPa·s.

Consider the reported viscosity for these molecules:
* BrCCBr | 1.613
* FC(F)C(F)(F)OCC(F)(F)C(F)(F)C(F)(F)C(F)F | 2.5
* CC(C)N | 0.278

Input line: Respond only with viscosity recorded for CCCC#N
Output line: 0.502

Input line: Respond only with viscosity recorded for CC(=O)[O-].CCCC[n+]1ccn(C)c1
Output line: 441

Input line: Respond only with viscosity recorded for Ic1ccccc1
Output line: 1.513

Input line: Respond only with viscosity recorded for C#Cc1ccccc1
Output line: 0.8829

Input line: Respond only with viscosity recorded for C1COCCO1
Output line: 1.155

====

assay: xn = mol fraction of the nth substance listed; settings: 303.15 K; 101 kPa; x2 = 0.7
Quick rule for you: viscosity under 2 mPa·s gets Yes, anything else gets No.

Completed entries (count: 2):
- COc1ccccc1O + CNc1ccccc1: No
- COc1ccccc1O + Cc1ccccc1N: No

Input line: Quick check: viscosity of COc1ccccc1O + CN(C)c1ccccc1 under 2 mPa·s?
Output line: Yes

Input line: Quick check: viscosity of COc1ccccc1O + c1ccncc1 under 2 mPa·s?
Output line: No

Input line: Quick check: viscosity of C[N+](C)(C)CC(=O)[O-] + CC(=O)CCC(=O)O under 2 mPa·s?
Output line: No

====

details: 308.15 K; 101 kPa
reportedProperty: viscosity (mPa·s)
Answer with a number only, understood to be in mPa·s.

- FC(F)C(F)(F)OCC(F)(F)C(F)(F)C(F)(F)C(F)F: 2.12
- O=C1CCCCO1: 2.496
- COc1ccccc1O: 4.138

Input line: Respond only with viscosity recorded for CCCCn1cc[n+](C)c1.O=S(=O)([N-]S(=O)(=O)C(F)(F)F)C(F)(F)F
Output line: 34.3

Input line: Respond only with viscosity recorded for OCC(F)(F)F
Output line: 1.43

Input line: Respond only with viscosity recorded for Ic1ccccc1
Output line: 1.318

====

experiment: xn = mol fraction of the nth substance listed; details: 303.15 K; 101 kPa; x2 = 0.3
reportedProperty: viscosity (mPa·s)
Answer with a number only, understood to be in mPa·s.

Consider the reported viscosity for these compounds:
* COc1ccccc1O + Cc1ccccc1 | 1.83
* COc1ccccc1O + c1ccncc1 | 5.4
* COc1ccccc1O + CNc1ccccc1 | 3.36
* COc1ccccc1O + Cc1ccccc1N | 5.2
* COc1ccccc1O + CN(C)c1ccccc1 | 2.84
* COc1ccccc1O + Nc1ccccc1 | 5.11

Input line: Respond only with viscosity recorded for COc1ccccc1O + c1ccccc1
Output line: 1.97

Input line: Respond only with viscosity recorded for COc1ccccc1O + CC(C)=O
Output line: 2.35

====

assay: xn = mol fraction of the nth substance listed; conditions: 303.15 K; 101 kPa; x2 = 0.5
reportedProperty: viscosity (mPa·s)
Answer with a number only, understood to be in mPa·s.

Consider the reported viscosity for these compounds:
- O=C1CCCO1 + COC(=O)OC: 0.889
- COc1ccccc1O + c1ccncc1: 4

Input line: Respond only with viscosity recorded for COc1ccccc1O + Cc1ccccc1N
Output line: 5.12

Input line: Respond only with viscosity recorded for COc1ccccc1O + CN(C)c1ccccc1
Output line: 2.16

====

assay: xn = mol fraction of the nth substance listed; conditions: 303.15 K; 101 kPa; x2 = 0.1
reportedProperty: viscosity (mPa·s)
Answer with a number only, understood to be in mPa·s.

- COc1ccccc1O + CN(C)c1ccccc1: 3.71
- COc1ccccc1O + Nc1ccccc1: 4.74
- COc1ccccc1O + c1ccncc1: 5.04

In the following, a different compound is considered.
Input line: Respond only with viscosity recorded for COc1ccccc1O + CC(C)=O
Output line: 3.67

====

test: xn = mol fraction of the nth substance listed; details: 303.15 K; 101 kPa; x2 = 0.9
Overview of reported viscosity across a group of molecules:
Answer with a number only, understood to be in mPa·s.

* COc1ccccc1O + Cc1ccccc1 | 0.599
* COc1ccccc1O + Nc1ccccc1 | 3.61
* COc1ccccc1O + Cc1ccccc1N | 3.58
* COc1ccccc1O + CC(C)=O | 0.44
* COc1ccccc1O + c1ccccc1 | 0.641
* COc1ccccc1O + c1ccncc1 | 1.09
* COc1ccccc1O + CNc1ccccc1 | 1.72

Input line: Respond only with viscosity recorded for COc1ccccc1O + CN(C)c1ccccc1
Output line: 1.31

====

Overview of reported viscosity across a group of compounds:
assay: xn = mol fraction of the nth substance listed; details: 303.15 K; 101 kPa; x2 = 0.6
Answer with a number only, understood to be in mPa·s.

- COc1ccccc1O + c1ccncc1: 3.3
- COc1ccccc1O + CNc1ccccc1: 2.44
- COc1ccccc1O + Cc1ccccc1: 0.981
- COc1ccccc1O + c1ccccc1: 1.04
- COc1ccccc1O + Nc1ccccc1: 4.86
- COc1ccccc1O + Cc1ccccc1N: 4.82
- COc1ccccc1O + CC(C)=O: 1.03

In the following, a different compound is considered.
Input line: Respond only with viscosity recorded for COc1ccccc1O + CN(C)c1ccccc1
Output line: 1.89

====

conditions: 303.15 K; 101 kPa
Overview of reported viscosity across a group of compounds:
Answer with a number only, understood to be in mPa·s.

Consider the reported viscosity for these compounds:
- COc1ccccc1O: 4.45
- COC(=O)CC(=O)OC: 1.804
- O=C1CCCCO1: 2.758

In the following, a different compound is considered.
Input line: Respond only with viscosity recorded for OCC(F)(F)F
Output line: 1.62

====

Overview of reported viscosity across a group of molecules:
details: 293.15 K; 101.33 kPa
Answer with a number only, understood to be in mPa·s.

- CC(C)[N+](=O)[O-]: 0.771
- O=C1CCCO1: 1.883
- Ic1ccccc1: 1.736

In the following, a different molecule is considered.
Input line: Respond only with viscosity recorded for Brc1ccccc1
Output line: 1.142

====

assay: xn = mol fraction of the nth substance listed; conditions: 303.15 K; 101 kPa; x2 = 0.8
Please enter true (1) where viscosity is greater than or equal to 1 mPa·s, and false (0) where it is lower.

Completed entries (count: 5):
- COc1ccccc1O + CNc1ccccc1: true (1)
- COc1ccccc1O + Cc1ccccc1: false (0)
- COc1ccccc1O + Nc1ccccc1: true (1)
- COc1ccccc1O + c1ccccc1: false (0)
- COc1ccccc1O + CC(C)=O: false (0)

Input line: Does the reported viscosity for COc1ccccc1O + c1ccncc1 fall at or above the 1 mPa·s mark?
Output line: true (1)

Input line: Does the reported viscosity for COc1ccccc1O + Cc1ccccc1N fall at or above the 1 mPa·s mark?
Output line: true (1)

Input line: Does the reported viscosity for COc1ccccc1O + CN(C)c1ccccc1 fall at or above the 1 mPa·s mark?
Output line: true (1)

====

assay: xn = mol fraction of the nth substance listed; details: 303.15 K; 101 kPa; x2 = 0.2
Overview of reported viscosity across a group of compounds:
Answer with a number only, understood to be in mPa·s.

Consider the reported viscosity for these compounds:
- COc1ccccc1O + c1ccccc1: 2.49
- COc1ccccc1O + CC(C)=O: 2.95
- COc1ccccc1O + Cc1ccccc1N: 4.93
- COc1ccccc1O + c1ccncc1: 5.38
- COc1ccccc1O + Cc1ccccc1: 2.47

Input line: Respond only with viscosity recorded for COc1ccccc1O + CNc1ccccc1
Output line: 3.72

Input line: Respond only with viscosity recorded for COc1ccccc1O + CN(C)c1ccccc1
Output line: 3.21

Input line: Respond only with viscosity recorded for COc1ccccc1O + Nc1ccccc1
Output line: 4.9
